Assay: AUC (0 to 12 hrs) in healthy human lung epithelial lining fluid at 400 mg, po every 12 hrs for 7 days
Assay type: ADME, organism-based
Parameters: time < 12 hr, dose 400 mg, route oral
ASSAY_READOUT: AUC at 12 h (ng·h/mL)
Lab book: enter the figure in ng·h/mL, no units written.

Given the compound CC[C@@H]([C@H](C)O)n1ncn(-c2ccc(N3CCN(c4ccc(OC[C@@H]5CO[C@@](Cn6cncn6)(c6ccc(F)cc6F)C5)cc4)CC3)cc2)c1=O [POSACONAZOLE] , write its reported AUC at 12 h.
18300

* * *

Test: Ratio of Drug level in healthy human alveolar cell to drug level in healthy human plasma at 400 mg, po every 12 hrs for 7 days measured after 12 hrs of last dose
Type: ADME, organism-based, Pneumocyte
Details: alveolar cells / plasma
ASSAY_READOUT: Kp at 12 h

Given the compound CC[C@@H]([C@H](C)O)n1ncn(-c2ccc(N3CCN(c4ccc(OC[C@@H]5CO[C@@](Cn6cncn6)(c6ccc(F)cc6F)C5)cc4)CC3)cc2)c1=O [POSACONAZOLE] , write its reported Kp at 12 h.
27.3

* * *

Experiment: Ratio of Drug level in healthy human lung epithelial lining fluid to drug level in healthy human plasma at 400 mg, po every 12 hrs for 7 days measured after 3 hrs of last dose
Type: ADME, organism-based
ASSAY_READOUT: Kp at 3 h
// no unit, no text: just the number

Given the compound CC[C@@H]([C@H](C)O)n1ncn(-c2ccc(N3CCN(c4ccc(OC[C@@H]5CO[C@@](Cn6cncn6)(c6ccc(F)cc6F)C5)cc4)CC3)cc2)c1=O , write its reported Kp at 3 h.
1.08

* * *

Assay: Ratio of Drug level in healthy human lung epithelial lining fluid to drug level in healthy human plasma at 400 mg, po every 12 hrs for 7 days measured after 12 hrs of last dose
Format: ADME, organism-based
ASSAY_READOUT: Kp at 12 h
// no unit, no text: just the number

Given the compound CC[C@@H]([C@H](C)O)n1ncn(-c2ccc(N3CCN(c4ccc(OC[C@@H]5CO[C@@](Cn6cncn6)(c6ccc(F)cc6F)C5)cc4)CC3)cc2)c1=O , write its reported Kp at 12 h.
0.59

* * *

Test: Ratio of Drug level in healthy human alveolar cell to drug level in healthy human plasma at 400 mg, po every 12 hrs for 7 days measured after 8 hrs of last dose
Format: ADME, organism-based, Pneumocyte
Conditions: alveolar cells / plasma
ASSAY_READOUT: Kp at 8 h
// no unit, no text: just the number

Given the molecule CC[C@@H]([C@H](C)O)n1ncn(-c2ccc(N3CCN(c4ccc(OC[C@@H]5CO[C@@](Cn6cncn6)(c6ccc(F)cc6F)C5)cc4)CC3)cc2)c1=O , write its reported Kp at 8 h.
32.5

* * *

Assay: Drug level in healthy human lung epithelial lining fluid at 400 mg, po every 12 hrs for 7 days measured after 24 hrs of last dose
Format: ADME, organism-based
Conditions: read-out: Drug uptake
ASSAY_READOUT: concentration at 24 h (ng/mL)
Lab book: enter the figure in ng/mL, no units written.

Given the compound CC[C@@H]([C@H](C)O)n1ncn(-c2ccc(N3CCN(c4ccc(OC[C@@H]5CO[C@@](Cn6cncn6)(c6ccc(F)cc6F)C5)cc4)CC3)cc2)c1=O [POSACONAZOLE] , write its reported concentration at 24 h.
1800

Each recorded value in this set is attributed to ChEMBL document CHEMBL1629615.
